- System: A. baum. CIP-105742
- EXPERIMENT_DESCRIPTION: MIC assay
- Format: cell-based
- CONDITION_SET: Acinetobacter baumannii, CIP105742; read-out: MIC A. baum. CIP-105742
REPORTED_PROPERTY: MIC

>>> measurement("C#CC[C@H](NC(=O)c1ccc(NC(=O)c2ccc(C#N)cc2)cc1)C(=O)Nc1ccc(C(=O)Nc2ccc3c(=O)n(-c4ccc(C(=O)O)cc4)cnc3c2OC(C)C)cc1 [Cmpd. 45b]")
"2 µg/mL"
>>> measurement("C#CC[C@H](NC(=O)c1ccc(NC(=O)c2ccc(C#N)cc2)cc1)C(=O)Nc1ccc(C(=O)Nc2ccc(C(=O)Nc3ccc(C(=O)O)cc3)c(Br)c2OC(C)C)cc1")
"> 8 µg/mL"
>>> measurement("C#CC[C@H](NC(=O)c1ccc(NC(=O)c2ccc(C#N)cc2)cc1)C(=O)Nc1ccc(CNc2ccc(C(=O)Nc3ccc(C(=O)O)cc3)c(O)c2OC(C)C)cc1")
"0.25 µg/mL"
>>> measurement("CO[C@@H](C(N)=O)[C@H](NC(=O)c1ccc(NC(=O)c2ccc(C#N)cc2)cc1)C(=O)Nc1ccc(C(=O)Nc2ccc(C(=O)N(C)c3ccc(C(=O)O)cc3)c(O)c2OC(C)C)cc1")
"> 8 µg/mL"
>>> measurement("O=C(O)c1cn(C2CC2)c2cc(N3CCNCC3)c(F)cc2c1=O [CIP, ciprofloxacin, reference compound]")
"0.03 to 0.25 µg/mL"
>>> measurement("C#CCC(NC(=O)c1ccc(NC(=O)c2ccc(C#N)cc2)cc1)C(=O)Nc1ccc(C(=O)Nc2ccc(C(=O)Nc3ccc(C(=O)O)cc3)c(Cl)c2OC(C)C)cc1 (stereo not drawn)")
"> 8 µg/mL"
